Each recorded value in this set is attributed to PubChem BioAssay (Tox21).

- TARGET_OR_TEST_SYSTEM: Nuclear receptor subfamily 1 group I member 3 (Homo sapiens) (UniProt Q14994)
- Sequence (Q14994 whole entry, looked up): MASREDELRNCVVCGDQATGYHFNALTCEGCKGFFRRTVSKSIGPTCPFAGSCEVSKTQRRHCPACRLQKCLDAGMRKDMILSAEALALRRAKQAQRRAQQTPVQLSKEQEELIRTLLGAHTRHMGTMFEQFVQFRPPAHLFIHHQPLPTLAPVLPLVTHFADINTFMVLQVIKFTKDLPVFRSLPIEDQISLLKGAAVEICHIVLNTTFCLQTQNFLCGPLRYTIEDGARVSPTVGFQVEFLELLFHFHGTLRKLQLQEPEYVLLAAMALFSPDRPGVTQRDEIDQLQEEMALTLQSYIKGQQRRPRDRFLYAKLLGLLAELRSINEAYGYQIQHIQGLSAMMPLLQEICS
- EXPERIMENTAL_PROTOCOL: qHTS assay to identify small molecule agonists of the constitutive androstane receptor (CAR) signaling pathway (AID 1224839); also: nearly all actives have a fitted effect of over 15% in size; also: potency is read from the fitted curve at half-maximal effect;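 as to activation: HepG2 cells stably carrying human CAR and a CYP2B6 luciferase reporter; % is scaled to controls: 0 for no effect and ±100 for the full control effect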
- PROTOCOL_CONDITIONS: HepG2 hCAR CYP2B6-luciferase, agonist mode, 24 h; series mostly up to 92.4 µM
Inconclusive results are not listed. Activity calls are given as the source filed them. Calls follow the shape of the dose curve; as a rule, active = well fitted activation curve with a large enough effect in the repeat runs; inconclusive = weak or mixed curves; inactive = no such curve, though single readings can be large or run the other way.
MEASURED_PARAMETER: Potency

Example entries and their recorded answers appear below.
>>> reported_measurement("COP(=S)(OC)Oc1c(Cl)cc(C)cc1Cl")
"27.3 µM (active)"
>>> reported_measurement("CCOP(=S)(OCC)Oc1ncn(-c2ccccc2)n1")
"30.6 µM (active)"
>>> reported_measurement("C=C(C)CN(CC)c1c([N+](=O)[O-])cc(C(F)(F)F)cc1[N+](=O)[O-]")
"inactive"
>>> reported_measurement("CCOP(=O)(OCC)OP(=O)(OCC)OCC")
"inactive"
>>> reported_measurement("CCN(Cc1ccc(Cl)nc1)/C(=C/[N+](=O)[O-])NC")
"inactive"

Proceed to the following item.
input: // lookup Potency for Cc1nnc2n1-c1sc(CCC(=O)N3CCOCC3)cc1C(c1ccccc1Cl)=NC2
output: inactive

* * *

Would you kindly list activity change, positive = activation for each of these compounds?
- EXPERIMENTAL_PROTOCOL: qHTS assay to identify small molecule agonists of the estrogen related receptor (ERR) signaling pathway from Tox21 library (AID 1224849); also: % is scaled to controls: 0 for no effect and ±100 for the full control effect; nearly all actives have a fitted effect of over 15% in size
- PROTOCOL_CONDITIONS: ERR reporter cell line, ONE-Glo luciferase, 18 h; at 92.4 µM (top of the series) unless noted
The source made the active and inactive calls. Calls follow the shape of the full dose curve.

input: // lookup activity change, positive = activation for CC1CCC(=O)O1 (configuration not stated)
output: -6.79% (inactive)

input: // lookup activity change, positive = activation for O=c1oc2ccccc2c(O)c1C1CCCc2ccccc21 (configuration not stated)
output: -20.9% (inactive)

input: // lookup activity change, positive = activation for CC(C)(C)NCC(O)c1cc(Cl)c(N)c(Cl)c1 (configuration not stated)
output: 6.3% [at 42.5 µM] (inactive)

input: // lookup activity change, positive = activation for CCCCN(CCCCO)N=O
output: -8.16% (inactive)

input: // lookup activity change, positive = activation for CC(Oc1ccc(Oc2ncc(C(F)(F)F)cc2Cl)cc1)C(=O)O (configuration not stated)
output: -29.5% (inactive)

input: // lookup activity change, positive = activation for O=NN1CCN(N=O)CC1
output: 3% (inactive)

input: // lookup activity change, positive = activation for COP(=S)(OC)Oc1c(Cl)cc(C)cc1Cl
output: 0.872% (inactive)

* * *

- TARGET_OR_TEST_SYSTEM: Cytochrome P450 2C19 (Homo sapiens) (UniProt P33261)
- Sequence (P33261 whole entry, looked up): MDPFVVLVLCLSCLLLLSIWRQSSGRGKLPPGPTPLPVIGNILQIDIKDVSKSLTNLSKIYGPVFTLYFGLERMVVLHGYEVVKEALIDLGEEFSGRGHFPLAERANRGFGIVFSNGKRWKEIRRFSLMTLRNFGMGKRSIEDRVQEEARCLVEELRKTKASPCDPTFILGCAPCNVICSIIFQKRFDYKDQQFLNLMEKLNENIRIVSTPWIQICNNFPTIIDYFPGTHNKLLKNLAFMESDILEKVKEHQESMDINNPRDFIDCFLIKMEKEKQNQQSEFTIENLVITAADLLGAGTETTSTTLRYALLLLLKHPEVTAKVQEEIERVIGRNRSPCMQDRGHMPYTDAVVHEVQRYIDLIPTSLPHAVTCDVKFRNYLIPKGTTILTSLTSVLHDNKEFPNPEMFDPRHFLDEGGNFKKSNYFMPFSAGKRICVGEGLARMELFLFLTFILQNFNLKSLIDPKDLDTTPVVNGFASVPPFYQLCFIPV
- EXPERIMENTAL_PROTOCOL: Cytochrome P450 Family 2 Subfamily C Member 19 (CYP2C19) small molecule antagonists: luciferase reporter qHTS assay (AID 1671197); also: nearly all actives have a fitted effect of over 65% in size
- PROTOCOL_CONDITIONS: P450-Glo CYP2C19 enzyme, luciferin luminescence, 1 h; series mostly up to 115 µM
Inconclusive results are not listed. The source made the active and inactive calls. Calls come from the whole dose curve; as a rule, active = well fitted inhibition curve with a large enough effect in the repeat runs; inconclusive = weak or mixed curves; inactive = no such curve, though single readings can be large or run the other way.
Respond only with the outcome that fits, drawn from 1.0 (active), 0.0 (inactive)

input: In this assay, the call recorded for Cc1ncsc1CCCl was what?
output: 0.0

input: In this assay, the call recorded for Cc1nc(N)nc(N)n1 was what?
output: 0.0

input: In this assay, the call recorded for C[C@]1(O)CC[C@H]2[C@@H]3CCC4=CC(=O)CC[C@]4(C)[C@@]3(F)[C@@H](O)C[C@@]21C was what?
output: 1.0

input: In this assay, the call recorded for CC(C1CC1)C(O)(Cn1cncn1)c1ccc(Cl)cc1 (centres undefined) was what?
output: 1.0

input: In this assay, the call recorded for COc1cccc2c1cc([N+](=O)[O-])c1c(C(=O)O)cc3c(c12)OCO3 was what?
output: 1.0

input: In this assay, the call recorded for O=[N+]([O-])c1cccc2c([N+](=O)[O-])cccc12 was what?
output: 1.0

input: In this assay, the call recorded for CCC(Cl)[N+](=O)[O-] (centres undefined) was what?
output: 0.0

input: In this assay, the call recorded for N#Cc1ccncc1 was what?
output: 0.0

input: In this assay, the call recorded for N#CC(O)c1ccccc1 (centres undefined) was what?
output: 0.0

input: In this assay, the call recorded for ClC(Cl)C(Cl)Cl was what?
output: 0.0

input: In this assay, the call recorded for CC(=O)C(Cl)Cl was what?
output: 0.0

input: In this assay, the call recorded for Clc1cccc(N2CCNCC2)c1 was what?
output: 0.0

input: In this assay, the call recorded for O=CNC(N1CCN(C(NC=O)C(Cl)(Cl)Cl)CC1)C(Cl)(Cl)Cl (centres undefined) was what?
output: 1.0

input: In this assay, the call recorded for c1ccc(N2CCNCC2)cc1 was what?
output: 0.0
